Provide the reported Human microsomal stability CLint of each item.
# Test protocol: Metabolic stability in liver microsomes, Method II, human
# Assay type: in vitro ADME
# Protocol: Determination of Metabolic Stability in Liver Microsomes—Method II The in vitro metabolic stability assay was performed in a 96-deep-well plate with incubation at 37° C. […] The injection volume was 5 μL. Compounds were detected using Analyst 1.5.1 software which collects intensity data for all fragments related to the molecular weight of the test compound. […] [formula] The intrinsic clearance value, CLint (expressed as μL/min/mg microsomal protein) calculation is shown below: […]
Counter-ions that a name gives are not always drawn.
Answers are plain numbers, in µL/min/mg.

C[C@H](Nc1nccc(N2C(=O)OC[C@@H]2[C@H](C)F)n1)c1ncc(-c2ccnc(C(F)(F)F)c2)cc1F [Example 463] | 28.27
C[C@H](Nc1nccc(N2C(=O)OCC2[C@H](C)F)n1)c1cn(-c2ccc(C(F)F)cc2)cn1 (some centres unmarked) [456 as TFA salt] | 16.79

Input: Quick check: Human microsomal stability CLint of C[C@H](Nc1nccc(N2C(=O)OC[C@@H]2[C@@H](C)N)n1)c1cnc(-c2ccc(Cl)cc2)s1 [Example 380] ?
Output: 31.15

###

# Test protocol: Metabolic stability in liver microsomes, Method II, mouse
# Type: in vitro ADME
Property: Mouse microsomal stability CLint (µL/min/mg)
Answers are plain numbers, in µL/min/mg.

C[C@H](Nc1nccc(N2C(=O)OC[C@@H]2[C@H](C)F)n1)c1cn(-c2ccc(F)cc2)cn1 | 33.13
C[C@H](Nc1nccc(N2C(=O)OC[C@@H]2[C@@H](C)N)n1)c1cnc(-c2ccc(Cl)cc2)s1 | 51.00

Report Mouse microsomal stability CLint for every entry below.
1. C[C@H](Nc1nccc(N2C(=O)OC[C@@H]2CF)n1)c1cn(-c2ccc(Cl)cc2)cn1
2. C[C@H](Nc1nccc(N2C(=O)OC[C@@H]2[C@H](C)F)n1)c1ncc(-c2ccnc(C(F)(F)F)c2)cc1F

Output:
1. 18.72
2. 35.45
